Tested on: RAR and RXR receptors
Experiment: Co-transfection assay, RARs and RXRs taken together
Type: cell-based
Procedure: Utilizing the "cis-trans" or "co-transfection" assay described by Evans et al., Science, 240:889-95 (May 13, 1988), the disclosure of which is herein incorporated by reference, the retinoid compounds of the present invention were tested and found to have strong, specific activity as either selective RAR agonists, selective RXR agonists, or as pan-agonist activators of both RAR and RXR receptors. […]
ENDPOINT LABEL: selectivity / potency profile on RARs and RXRs in words

- CC(/C=C/C=C1\CCOc2cc3c(cc21)C(C)(C)CCC3(C)C)=C\C(=O)O [Compound 119b]: RAR selective
- CC(/C=C/C=C1\CCCc2cc3c(cc21)C(C)(C)CCC3(C)C)=C\C(=O)O [Compound 109b]: RAR selective

FYI, the data here is from patent US5770383A.
